- Assay Name: Acute toxicity [LD50] by the intraperitoneal route
- Test Conditions: rat, in vivo, ip, rats
Could you please report measured LD50 for the items listed next?

Recorded result, COC1=C(CO)C(=O)c2c(cc(OC)c(CSCC(NC(C)=O)C(=O)O)c2O)C1=O (stereo not drawn) [P-23924F] , LD50: 50 to 100 mg/kg

In plain terms, COC1=C(C)C(=O)c2c(cc(OC)c(CSCC(NC(C)=O)C(=O)O)c2O)C1=O (stereo not drawn) [P-23924B] has a documented LD50 of 50 to 100 mg/kg

Sure, the documented LD50 for COc1cc2c(c(O)c1CSCC(NC(C)=O)C(=O)O)C(=O)C(CO)=CC2=O (stereo not drawn) [P-23924E] is ~50 mg/kg

Lab book: LD50 of COC1=C(C)C(=O)c2c(cc(O)c(CSCC(NC(C)=O)C(=O)O)c2O)C1=O (stereo not drawn) [P-23924D] noted as > 400 mg/kg

// LD50 lookup, molecule = COC1=CC(=O)c2c(cc(OC)c(CSCC(NC(C)=O)C(=O)O)c2O)C1=O (stereo not drawn) [P-23924C] , result: 100 to 200 mg/kg

Record summary for COc1cc2c(c(O)c1CSCC(NC(C)=O)C(=O)O)C(=O)C(C)=CC2=O (stereo not drawn) [P-23924A] : reported LD50 = 100 to 200 mg/kg
